The compounds below each have a reported IC50 tested on Falcipain 2 (Plasmodium falciparum); the values come from various publications.
MEASURE: IC50 (µM)

Illustrative cases are given below, each with its answer.
COMPOUND	IC50 [µM]
CCCc1cc(O)nc(SCC(=O)NCCSCc2ccco2)n1	4.6
Cn1nc(C(F)(F)F)cc1-c1ccc(C(=O)N[C@@H](Cc2cccnc2)C(=O)NC2(C#N)CCS(=O)(=O)CC2)s1	0.0063
CCOC(=O)/C=C/C(=O)[C@H](C)NC(=O)[C@H](CC(C)C)NC(=O)OCc1ccccc1	1.2

I: N#CC1(NC(=O)[C@H](Cc2ccccc2)NC(=O)c2ccc(-c3ccccc3)cc2)CC1
II: N#CC1(NC(=O)[C@H](Cc2cccnc2)NC(=O)c2cccc(-n3cnnn3)c2)CC1
III: N#CC1(NC(=O)[C@H](Cc2c[nH]c3ccc(O)cc23)NC(=O)c2ccc(-c3ccccc3)cc2)CC1
Output the entries ranked by IC50 from maximum down to minimum. Form entry: labels listed in requested order.
I, III, II
(I: 0.667 µM, III: 0.192 µM, II: 0.003 µM)

I: O=C(CSc1nnc(O)n1Cc1ccco1)c1ccc2c(c1)OCCO2
II: O=C(CCSSCCC(=O)NCc1ccccc1)NCc1ccccc1
III: CN1CCN(Cc2ccc(C(=O)N[C@@H](Cc3cccnc3)C(=O)NC3(C#N)CC3)s2)CC1
Output the entries ranked by IC50 from maximum down to minimum. Form entry: labels listed in requested order.
I, II, III
(I: 52.3 µM, II: 15.3 µM, III: 0.0259 µM)

A: N#CC1(NC(=O)C(Cc2ccc(Cl)nc2)NC(=O)c2ccc(-c3ccccc3)cc2)CC1 (stereo not drawn)
B: COC(=O)c1ccsc1NC(=O)CN1CCN(S(=O)(=O)c2ccc(Cl)cc2)CC1
C: N#CC1(NC(=O)[C@H](Cc2cccnc2)NC(=O)c2cccc(-c3cn[nH]c3)c2)CC1
D: CN1CCCC(c2cccc(C(=O)N[C@@H](Cc3cccnc3)C(=O)NC3(C#N)CC3)c2)C1 (stereo partly drawn)
Sort entries by IC50 from minimum to maximum value. Form entry: labels listed in requested order.
C, D, A, B
